Biological target: Cyclopropane-fatty-acyl-phospholipid synthase (Escherichia coli) (UniProt P0A9H7)
Sequence (P0A9H7 whole entry, looked up): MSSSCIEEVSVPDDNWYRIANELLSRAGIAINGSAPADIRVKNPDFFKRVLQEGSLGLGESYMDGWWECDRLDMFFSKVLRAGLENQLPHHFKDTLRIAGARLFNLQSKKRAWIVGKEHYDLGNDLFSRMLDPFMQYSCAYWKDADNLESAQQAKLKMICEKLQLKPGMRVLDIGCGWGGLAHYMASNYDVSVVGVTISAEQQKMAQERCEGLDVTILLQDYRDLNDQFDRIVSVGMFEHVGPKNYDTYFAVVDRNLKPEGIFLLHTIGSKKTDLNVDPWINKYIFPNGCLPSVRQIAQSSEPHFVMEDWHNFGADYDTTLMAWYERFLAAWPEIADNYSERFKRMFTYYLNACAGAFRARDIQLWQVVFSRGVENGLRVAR
Test: Inhibition constant against Escherichia coli cyclopropane fatty acid synthase
pKi: −log10 of the molar value.

| compound | system | pKi |
| --- | --- | --- |
| Nc1ncnc2c1ncn2[C@@H]1O[C@H](C[S+]([O-])CC[C@H](N)C(=O)O)[C@@H](O)[C@H]1O (stereo partly specified) | Cyclopropane-fatty-acyl-phospholipid synthase (Escherichia coli) (UniProt P0A9H7) | 4.52 |

====

Molecular target: Cyclopropane-fatty-acyl-phospholipid synthase (Escherichia coli) (UniProt P0A9H7)
Assay: Inhibition constant against Escherichia coli cyclopropane fatty acid synthase
Ki reference
measurement-type: Ki

| compound | system | observed-measurement |
| --- | --- | --- |
| Nc1ncnc2c1ncn2[C@@H]1O[C@H](C[S+]([O-])CC[C@H](N)C(=O)O)[C@@H](O)[C@H]1O (stereo partly drawn) | Cyclopropane-fatty-acyl-phospholipid synthase (Escherichia coli) (UniProt P0A9H7) | 50 µM |
| Nc1ncnc2c1ncn2[C@@H]1O[C@H](CSCCC(N)C(=O)O)[C@@H](O)[C@H]1O (stereo partly drawn) | Cyclopropane-fatty-acyl-phospholipid synthase (Escherichia coli) (UniProt P0A9H7) | 30 µM |
| CS(=O)(=O)C[C@H]1O[C@@H](n2cnc3c(N)ncnc32)[C@H](O)[C@@H]1O | Cyclopropane-fatty-acyl-phospholipid synthase (Escherichia coli) (UniProt P0A9H7) | 220 µM |
| Nc1ncnc2c1ncn2[C@@H]1O[C@H](CS(=O)(=O)CC[C@H](N)C(=O)O)[C@@H](O)[C@H]1O | Cyclopropane-fatty-acyl-phospholipid synthase (Escherichia coli) (UniProt P0A9H7) | 100 µM |
| C[S+](C)C[C@H]1O[C@@H](n2cnc3c(N)ncnc32)[C@H](O)[C@@H]1O | Cyclopropane-fatty-acyl-phospholipid synthase (Escherichia coli) (UniProt P0A9H7) | 2500 µM |
| Nc1ncnc2c1ncn2[C@@H]1O[C@H](CSCC[C@H](N)C(=O)O)[C@@H](O)[C@H]1O | Cyclopropane-fatty-acyl-phospholipid synthase (Escherichia coli) (UniProt P0A9H7) | 150 µM |
| CSC[C@H]1O[C@@H](n2cnc3c(N)ncnc32)[C@H](O)[C@@H]1O | Cyclopropane-fatty-acyl-phospholipid synthase (Escherichia coli) (UniProt P0A9H7) | 1500 µM |
| C[S+]([O-])C[C@H]1O[C@@H](n2cnc3c(N)ncnc32)[C@H](O)[C@@H]1O (stereo partly drawn) | Cyclopropane-fatty-acyl-phospholipid synthase (Escherichia coli) (UniProt P0A9H7) | 500 µM |
